The reported measurements were obtained from ChEMBL document CHEMBL1817572.

- Target Of Assay: Vasopressin V1a/V2 (Homo sapiens) (UniProt P30518+P37288)
- Sequence (P30518 whole entry, looked up): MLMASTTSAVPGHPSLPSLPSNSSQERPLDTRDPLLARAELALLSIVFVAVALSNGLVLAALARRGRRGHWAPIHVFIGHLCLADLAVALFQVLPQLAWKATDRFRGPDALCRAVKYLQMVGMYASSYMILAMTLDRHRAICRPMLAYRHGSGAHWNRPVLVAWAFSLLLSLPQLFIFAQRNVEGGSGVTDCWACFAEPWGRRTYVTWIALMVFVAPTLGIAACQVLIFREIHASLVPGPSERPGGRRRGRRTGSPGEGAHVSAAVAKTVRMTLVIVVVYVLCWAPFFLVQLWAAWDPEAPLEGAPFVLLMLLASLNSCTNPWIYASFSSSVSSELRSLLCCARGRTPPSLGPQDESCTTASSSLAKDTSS
- Sequence (P37288 whole entry, looked up): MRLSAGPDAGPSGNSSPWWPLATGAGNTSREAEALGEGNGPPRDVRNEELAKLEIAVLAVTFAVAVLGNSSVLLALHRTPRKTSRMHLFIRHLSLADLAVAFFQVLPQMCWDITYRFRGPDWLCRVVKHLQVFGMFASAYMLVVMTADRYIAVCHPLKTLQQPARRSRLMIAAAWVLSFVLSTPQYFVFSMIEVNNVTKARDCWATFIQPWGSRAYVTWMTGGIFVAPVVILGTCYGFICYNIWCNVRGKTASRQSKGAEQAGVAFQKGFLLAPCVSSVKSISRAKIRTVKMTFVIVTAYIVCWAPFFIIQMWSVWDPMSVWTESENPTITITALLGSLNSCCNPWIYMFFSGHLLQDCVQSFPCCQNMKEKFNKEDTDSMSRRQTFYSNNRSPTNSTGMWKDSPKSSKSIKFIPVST
- Experiment Summary: Selectivity ratio of EC50 for human vasopressin V2 receptor to EC50 for human vasopressin V1a receptor
Bridge positions count the residues as written; N and C are the ends. Square brackets hold non-standard residues; d marks the D form. Peptide text beside a SMILES is read from it. Dab(iPr) = CC(C)NCC[C@H](N)C(=O)O; Aad = N[C@@H](CCCC(=O)O)C(=O)O; Orn = NCCC[C@H](N)C(=O)O; Dab = NCC[C@H](N)C(=O)O; Ac4c = NC1(C(=O)O)CCC1
# Ratio EC50 values compiled below

Solved entries (count: 2):
Molecule: NCCC[C@H](NC(=O)[C@@H]1CCCN1C(=O)[C@@H]1CSSC[C@H](N)C(=O)N[C@@H](Cc2ccccc2)C(=O)N[C@@H](Cc2ccccc2)C(=O)N[C@@H](CCC(N)=O)C(=O)N[C@@H](CC(N)=O)C(=O)N1)C(=O)NCC(N)=O (H-CFFQNCP[Orn]G-NH2; disulfide 1-6)
Measured Result: 65

Molecule: CC[C@H](C)[C@@H]1NC(=O)[C@H](Cc2ccccc2)NC(=O)[C@@H](N)CSSC[C@@H](C(=O)N2CCC[C@H]2C(=O)N[C@@H](CCNC(C)C)C(=O)NCC(N)=O)NC(=O)[C@H](CC(N)=O)NC(=O)[C@H](CCCC(N)=O)NC1=O (H-CFI[Aad](NH2)NCP[Dab(iPr)]G-NH2; disulfide 1-6)
Measured Result: 61

With those in mind, consider the next molecule.
Quick one: give measured Ratio EC50 for CC[C@H](C)[C@@H]1NC(=O)C2(CCC2)NC(=O)[C@@H](N)CSSC[C@@H](C(=O)N2CCC[C@H]2C(=O)N[C@@H](CCN)C(=O)NCC(N)=O)NC(=O)[C@H](CC(N)=O)NC(=O)[C@H](CCC(N)=O)NC1=O (H-C[Ac4c]IQNCP[Dab]G-NH2; disulfide 1-6)
400
